- System: UACC-62 melanoma
- method-summary: NCI-60 one-dose screen, 48 h (100 = growth as untreated, 0 = no growth, -100 = all killed)
- protocol-conditions: 10 µM unless noted
This is part of a sample that, as a whole, favours compounds with a hit. Of some 83,000 tested, about 20% had one in any assay. Active and inactive are the calls of the source. Rule for the calls: active = growth percent below 10; inactive = the rest.
Listed here are compounds together with their documented growth.
test-readout: growth

                                    compound          reported
 0             COc1ccc(/C=C/c2cccc[n+]2C)cc1   114% (inactive)
 1                 CCCCOC(=O)c1ccc(C(C)C)cc1   103% (inactive)
 2  O=C1c2ccccc2C(=O)c2c1ccc(C(=O)O)c2[N+](=O)[O-]   106% (inactive)
 3       CC(C)OC(=O)c1cc(NC(=S)OC(C)C)ccc1Cl  77.1% (inactive)
 4  Cc1cc(C(O)(c2ccc(Nc3ccccc3)cc2)c2ccc(Nc3ccc(S(=O)(=O)O)cc3)cc2)ccc1N (centres undefined)   -22.7% (active)
 5                                Oc1ccccc1O  86.8% (inactive)
 6  O=[N+]([O-])c1ccc(/C=C/C=C/c2ccccc2)c(Cl)c1  96.6% (inactive)
 7  O=C1OC(c2ccc(F)cc2)CC1CN1CCOCC1 (centres undefined)   110% (inactive)
 8    CCN(CC)CCNc1ccc(CO)c2sc3ccccc3c(=O)c12  30.6% (inactive)
 9  CC(C(=O)O)(C1CCCCC1)C1(O)CCCCC1 (centres undefined)   113% (inactive)
10                    S=C(Nc1ccccc1)N1CCCCC1  90.5% (inactive)
11                               CCOC(=O)CNN   103% (inactive)
12  COc1cc(CCN=Cc2ccccc2O)c([N+](=O)[O-])cc1OC   109% (inactive)
13              C#CCSc1nnnn1-c1ccc(Br)c(C)c1  65.6% (inactive)
14  CN1C(=O)CN2CCc3ccccc3C2c2cc(Cl)ccc21 (centres undefined)  78.7% (inactive)
15        CCOC(=O)c1cc(/C=C/c2cccc(Cl)c2)on1  78.8% (inactive)
16  C#CC(C(C)C)N(CCO)CCCC (centres undefined)   107% (inactive)
17             CC1(C)OC(=O)C(c2ccsc2)C(=O)O1   105% (inactive)
18  CC(=O)OCC(=O)[C@@]1(O)CC[C@H]2[C@@H]3CC[C@@H]4C[C@H](O)CC[C@]4(C)[C@H]3C(=O)C[C@@]21C   103% (inactive)

====

- System: NCI/ADR-RES ovarian
- method-summary: NCI-60 one-dose screen, 48 h
- protocol-conditions: 10 µM
The panel holds about 83,000 compounds, 20% with a hit somewhere; the sample as a whole holds those more often. Calls of active or inactive are those of the source. How the source made its calls: active means growth percent below 10; inactive means the rest.
Outcome codes: active, inactive

compound	test-target	answer-label
NC(C(=O)O)c1ccc([N+](=O)[O-])cc1 (centres undefined)	NCI/ADR-RES ovarian	inactive
Brc1cnc2ccccc2c1	NCI/ADR-RES ovarian	inactive
O=c1cc2oc3cc(O)c(O)cc3c(-c3ccccc3O)c-2cc1O	NCI/ADR-RES ovarian	inactive
CCN1C(=O)/C(=C/C=C/N(C)c2ccccc2)SC1=S	NCI/ADR-RES ovarian	inactive
CCS(=O)(=O)c1cc(=O)[nH]c(=O)[nH]1	NCI/ADR-RES ovarian	inactive
CC(=O)c1ccc2c(ccc3ccccc32)c1	NCI/ADR-RES ovarian	inactive
CC1CC(O)C2C3(C)CCCC2(COC3=O)C12CCC1(CCOC1=O)O2 (centres undefined)	NCI/ADR-RES ovarian	inactive
NC(=S)CN1CCOCC1	NCI/ADR-RES ovarian	inactive
C=CCNC(=O)c1ccc(OC)cc1	NCI/ADR-RES ovarian	inactive
Cc1cc2nc(CC(=O)c3cccc([N+](=O)[O-])c3)c(=O)[nH]c2cc1C	NCI/ADR-RES ovarian	inactive
O=[N+]([O-])c1ccc(N=Nc2ccccc2)cc1	NCI/ADR-RES ovarian	inactive
S=c1nn[nH]c2ccccc12	NCI/ADR-RES ovarian	inactive
CC(=O)Nc1ccc(NC(C)=O)c2c1C(=O)c1ccccc1C2=O	NCI/ADR-RES ovarian	inactive
COc1ccc(C2(O)CCCCC2)cc1	NCI/ADR-RES ovarian	inactive
Nc1ccc(N=Nc2ccc(O)cc2)c(N)n1	NCI/ADR-RES ovarian	inactive
Cc1ccc(C(=O)N/N=C/c2ccc3c(c2)OCO3)cc1	NCI/ADR-RES ovarian	inactive
Cc1cc(C(O)(c2ccc(Nc3ccccc3)cc2)c2ccc(Nc3ccc(S(=O)(=O)O)cc3)cc2)ccc1N (centres undefined)	NCI/ADR-RES ovarian	inactive
Nc1ccc(CC(=O)O)c(N)c1	NCI/ADR-RES ovarian	inactive
c1csc(-c2cc(-c3cc(-c4cccs4)[nH]n3)n[nH]2)c1	NCI/ADR-RES ovarian	inactive
O=C(O)C(Cc1ccccc1)C(=O)O	NCI/ADR-RES ovarian	inactive
Nc1ccccc1SC(CC(=O)c1ccccc1)c1c(Cl)cccc1Cl (centres undefined)	NCI/ADR-RES ovarian	inactive
COc1cc2cc(c1Cl)N(C)C(=O)C[C@H](OC(=O)[C@H](C)N(C)C(C)=O)[C@]1(C)O[C@H]1[C@H](C)[C@@H]1C[C@@](O)(NC(=O)O1)[C@H](OC)C=C/C=C(\C)C2	NCI/ADR-RES ovarian	active
CCOC(=O)c1cc2cccc(OC)c2oc1=O	NCI/ADR-RES ovarian	inactive
OCc1cccc2ccccc12	NCI/ADR-RES ovarian	inactive
CC1CCCC(CC(N)=O)CC1 (centres undefined)	NCI/ADR-RES ovarian	inactive
Cc1ccc(/C=C2\SC(=S)N(c3ccc(F)cc3)C2=O)o1	NCI/ADR-RES ovarian	inactive
CCn1c(=O)n(C)c2c(=O)n(C)c(=O)n(C)c21	NCI/ADR-RES ovarian	inactive
O=C(Nc1cc(-c2ccccc2)[nH]n1)c1ccc(Cl)cc1	NCI/ADR-RES ovarian	inactive
O=C1Cc2ccccc2C(=O)O1	NCI/ADR-RES ovarian	inactive
CCOC(=O)CCCC(=O)OCC	NCI/ADR-RES ovarian	inactive
CCCC(C)OCC(=O)O (centres undefined)	NCI/ADR-RES ovarian	inactive
O=C(O)CCCc1ccccc1	NCI/ADR-RES ovarian	inactive
N/N=C(/Cc1ccccc1)NNC(N)=S	NCI/ADR-RES ovarian	inactive
CC(=O)NCc1cc(C)c(C)cc1C	NCI/ADR-RES ovarian	inactive
